Provenance of the data: PubChem BioAssay (NCI)

Tested on: MOLT-4 leukemia
Experiment: NCI tumour cell line growth inhibition, 48 h; in the data active means GI50 below about 0.43 µM; inactive means the rest
Answer with one of the outcomes class 1 = active, class 0 = inactive

Worked cases, answers included:
molecule=Nc1nc2ccc(-c3nc4ccc5[nH]ncc5c4c4c3CCC4)cc2s1 category="class 1"
molecule="O=S(=O)(/N=c1\\scc(-c2ccccc2)n1-c1ccccc1)c1ccc(N2N=C3c4ccccc4CC3C2c2ccc(Cl)cc2)cc1 (stereo not given)" category="class 0"
molecule=CCOc1ccccc1CCN=C1NC(=O)/C(=C/c2ccc3ncccc3c2)S1 category="class 0"
molecule=c1ccc(-c2nc(-c3ccccn3)nc(-c3ccccn3)n2)nc1 category="class 0"

Consider the additional molecule presented here.
Please let me know the test result on file for COc1ccc(-c2noc(C(=O)O)c2-c2cc(OC)c(OC)c(OC)c2)cc1 .
class 0
